Reference source: patent US8247211B2

Some compounds, each annotated with its measured MIC Staphylococcus aureus (GC 4544).
system: Staphylococcus sp.; assay: In vitro antibacterial evaluation: minimum inhibitory concentration (MIC), broth dilution method; format: cell-based; conditions: strain GC 4544
MEASUREMENT_KIND: MIC Staphylococcus aureus (GC 4544) (µg/mL)

{"COMPOUND": "CC(c1ccccc1)C1NC(=O)CNC(=O)C(CO)NC(=O)C(C(O)C2CNC(=N)N2C2OC(CO)C(O)C(O)C2O)NC(=O)C(C(O)C2CNC(=N)N2)NC(=O)C(Cc2ccc(OC3OC(CO)C(OC4OC5COC6(CC7CCC6(C)C7(C)C)OC5C(O)C4O)C(O)C3O)cc2)NC1=O (stereo not shown)", "TARGET_DESC": "Staphylococcus sp.", "DATA_VALUE": 0.5}
{"COMPOUND": "CC(c1ccccc1)C1NC(=O)CNC(=O)C(CO)NC(=O)C(C(O)C2CNC(=N)N2C2OC(CO)C(O)C(O)C2O)NC(=O)C(C(O)C2CNC(=N)N2)NC(=O)C(Cc2ccc(OC3OC(CO)C(OC4OC5COC(c6cccc(Oc7cccc(C(F)(F)F)c7)c6)OC5C(O)C4O)C(O)C3O)cc2)NC1=O (stereo not shown)", "TARGET_DESC": "Staphylococcus sp.", "DATA_VALUE": 32}
{"COMPOUND": "CC(C)=CCN1CC(C(O)C2NC(=O)C(C(O)C3CNC(=N)N3)NC(=O)C(Cc3ccc(OC4OC(CO)C(OC5OC6COC7(OC6C(O)C5O)C5CC6CC(C5)CC7C6)C(O)C4O)cc3)NC(=O)C(C(C)c3ccccc3)NC(=O)CNC(=O)C(CO)NC2=O)N(C2OC(CO)C(O)C(O)C2O)C1=N (stereo not shown)", "TARGET_DESC": "Staphylococcus sp.", "DATA_VALUE": 8}
{"COMPOUND": "CC(c1ccccc1)C1NC(=O)CNC(=O)C(CO)NC(=O)C(CC2CNC(=N)N2C2OC(CO)C(O)C(O)C2O)NC(=O)C(CC2CNC(=N)N2)NC(=O)C(Cc2ccc(OC3OC(CO)C(OC4OC5COC(c6ccc(OCc7ccccc7)cc6)OC5C(O)C4O)C(O)C3O)cc2)NC1=O (stereo not shown)", "TARGET_DESC": "Staphylococcus sp.", "DATA_VALUE": 8}

###

Some compounds, each annotated with its measured MIC Staphylococcus aureus-SMITH (GC 4543).
system: Staphylococcus sp.; experiment: In vitro antibacterial evaluation: minimum inhibitory concentration (MIC), broth dilution method; format: cell-based; settings: Staphylococcus aureus-SMITH (GC 4543); 18 hours at 35° C.
MEASUREMENT_KIND: MIC Staphylococcus aureus-SMITH (GC 4543) (µg/mL)

{"COMPOUND": "CC(C)C(=O)OCC1OC(OC2C(CO)OC(Oc3ccc(CC4NC(=O)C(Cc5ccccc5)NC(=O)CNC(=O)C(CO)NC(=O)C(C(O)C5CNC(=N)N5C5OC(CO)C(O)C(O)C5O)NC(=O)C(C(O)C5CNC(=N)N5)NC4=O)cc3)C(O)C2O)C(O)C(O)C1O (stereo not drawn) [Example 283a]", "DATA_VALUE": 64}
{"COMPOUND": "CC(C)CC(=O)OC1C(O)C(CO)OC(OC2C(CO)OC(Oc3ccc(CC4NC(=O)C(C(C)c5cccc(F)c5)NC(=O)CNC(=O)C(CO)NC(=O)C(C(O)C5CNC(=N)N5C5OC(CO)C(O)C(O)C5O)NC(=O)C(C(O)C5CNC(=N)N5)NC4=O)cc3)C(O)C2O)C1O (stereo not drawn) [Example 264b]", "DATA_VALUE": 8}
{"COMPOUND": "CCCCCNC(=O)OCC1OC(OC2C(CO)OC(Oc3ccc(CC4NC(=O)C(C(C)c5ccccc5)NC(=O)CNC(=O)C(CO)NC(=O)C(C(O)C5CNC(=N)N5C5OC(CO)C(O)C(O)C5O)NC(=O)C(C(O)C5CNC(=N)N5)NC4=O)cc3)C(O)C2O)C(O)C(O)C1O (stereo not drawn) [Example 251b]", "DATA_VALUE": 8}

###

tested on: Staphylococcus sp.; experiment: In vitro antibacterial evaluation: minimum inhibitory concentration (MIC), broth dilution method; format: cell-based; conditions: broth dilution, 5×10^5 CFU/mL, 18 hours at 35° C.
Some molecules, each annotated with its measured MIC Staphylococcus aureus (GC 3051).

{"MOLECULE": "CCOc1cc(C2OCC3OC(OC4C(CO)OC(Oc5ccc(CC6NC(=O)C(C(C)c7ccccc7)NC(=O)CNC(=O)C(CO)NC(=O)C(C(O)C7CNC(=N)N7C7OC(CO)C(O)C(O)C7O)NC(=O)C(C(O)C7CNC(=N)N7)NC6=O)cc5)C(O)C4O)C(O)C(O)C3O2)ccc1[N+](=O)[O-] (stereo not shown)", "MEASUREMENT_UNITS": "mg/L", "MIC Staphylococcus aureus (GC 3051)": 16}
{"MOLECULE": "CC(c1ccccc1)C1NC(=O)CNC(=O)C(CO)NC(=O)C(C(O)C2CNC(=N)N2C2OC(CO)C(O)C(O)C2O)NC(=O)C(C(O)C2CNC(=N)N2)NC(=O)C(Cc2ccc(OC3OC(CO)C(OC4OC5COC(c6ccc7c(c6)OCCO7)OC5C(O)C4O)C(O)C3O)cc2)NC1=O (stereo not shown)", "MEASUREMENT_UNITS": "mg/L", "MIC Staphylococcus aureus (GC 3051)": 2}
{"MOLECULE": "CC(c1ccccc1)C1NC(=O)CNC(=O)C(CO)NC(=O)C(C(O)C2CNC(=N)N2C2OC(CO)C(O)C(O)C2O)NC(=O)C(C(O)C2CNC(=N)N2)NC(=O)C(Cc2ccc(OC3OC(CO)C(OC4OC5COC(c6cccc(-c7ccccc7)c6)OC5C(O)C4O)C(O)C3O)cc2)NC1=O (stereo not shown)", "MEASUREMENT_UNITS": "mg/L", "MIC Staphylococcus aureus (GC 3051)": 1}
{"MOLECULE": "COc1ccc(Oc2cccc(C3OCC4OC(OC5C(CO)OC(Oc6ccc(CC7NC(=O)C(C(C)c8ccccc8)NC(=O)CNC(=O)C(CO)NC(=O)C(C(O)C8CNC(=N)N8C8OC(CO)C(O)C(O)C8O)NC(=O)C(C(O)C8CNC(=N)N8)NC7=O)cc6)C(O)C5O)C(O)C(O)C4O3)c2)cc1 (stereo not shown)", "MEASUREMENT_UNITS": "mg/L", "MIC Staphylococcus aureus (GC 3051)": 1}
{"MOLECULE": "CCCc1ccc(C2OCC3OC(OC4C(CO)OC(Oc5ccc(CC6NC(=O)C(C(C)c7ccccc7)NC(=O)CNC(=O)C(CO)NC(=O)C(C(O)C7CNC(=N)N7C7OC(CO)C(O)C(O)C7O)NC(=O)C(C(O)C7CNC(=N)N7)NC6=O)cc5)C(O)C4O)C(O)C(O)C3O2)cc1 (stereo not shown)", "MEASUREMENT_UNITS": "mg/L", "MIC Staphylococcus aureus (GC 3051)": 1}
{"MOLECULE": "CSc1ccc(C2OCC3OC(OC4C(CO)OC(Oc5ccc(CC6NC(=O)C(C(C)c7ccccc7)NC(=O)CNC(=O)C(CO)NC(=O)C(C(O)C7CNC(=N)N7C7OC(CO)C(O)C(O)C7O)NC(=O)C(C(O)C7CNC(=N)N7)NC6=O)cc5)C(O)C4O)C(O)C(O)C3O2)cc1 (stereo not shown)", "MEASUREMENT_UNITS": "mg/L", "MIC Staphylococcus aureus (GC 3051)": 1}
{"MOLECULE": "COc1cc(OC)cc(C2OC3C(OC4C(CO)OC(Oc5ccc(CC6NC(=O)C(C(C)c7ccccc7)NC(=O)CNC(=O)C(CO)NC(=O)C(C(O)C7CNC(=N)N7C7OC(CO)C(O)C(O)C7O)NC(=O)C(C(O)C7CNC(=N)N7)NC6=O)cc5)C(O)C4O)OC(CO)C(O)C3O2)c1 (stereo not shown) [Example 150a]", "MEASUREMENT_UNITS": "mg/L", "MIC Staphylococcus aureus (GC 3051)": 32}

###

Some compounds, each annotated with its measured MIC Enterococcus faecalis (GC 2691).
system: Enterococcus sp.; assay: In vitro antibacterial evaluation: minimum inhibitory concentration (MIC), broth dilution method; format: cell-based; conditions: Enterococcus faecalis (GC 2691); broth dilution, 18 hours at 35° C.
Numbered stars: 1 amine (or outer) side, 2 acyl side, 3 side chain; on linkers, the order of the positions; unused ones are H or OH. Square brackets hold non-standard residues; d marks the D form. Peptide text beside a SMILES is read from it. ξ: configuration not given here. X1 = N=C1NCC(C(O)C(N[*:1])C(=O)[*:2])N1C1OC(CO)C(O)C(O)C1O; ξEnduracididine(βξ-OH,4'ξ) = N=C1NCC(C(O)C(N)C(=O)O)N1; Cha = N[CH](CC1CCCCC1)C(=O)O

{"COMPOUND": "CC(c1ccccc1)C1NC(=O)CNC(=O)C(CO)NC(=O)C(C(O)C2CNC(=N)N2C2OC(CO)C(O)C(O)C2O)NC(=O)C(C(O)C2CNC(=N)N2)NC(=O)C(Cc2ccc(O)c(NC(=S)Nc3cc(C(F)(F)F)cc(C(F)(F)F)c3)c2)NC1=O (stereo not shown) [Example 24]", "MEASUREMENT_UNITS": "µg/mL", "READOUT_QUALIFIER": ">", "MIC Enterococcus faecalis (GC 2691)": 64}
{"COMPOUND": "CC(c1ccccc1)C1NC(=O)CNC(=O)C(CO)NC(=O)C(C(O)C2CNC(=N)N2C2OC(CO)C(O)C(O)C2O)NC(=O)C(C(O)C2CNC(=N)N2)NC(=O)C(Cc2ccc3oc(-c4ccc(N(C)C)cc4)nc3c2)NC1=O (stereo not shown) [Example 29]", "MEASUREMENT_UNITS": "µg/mL", "READOUT_QUALIFIER": "=", "MIC Enterococcus faecalis (GC 2691)": 32}
{"COMPOUND": "CC(c1ccccc1)C1NC(=O)CNC(=O)C(CO)NC(=O)C(C(O)C2CNC(=N)N2C2OC(CO)C(O)C(O)C2O)NC(=O)C(C(O)C2CNC(=N)N2)NC(=O)C(Cc2ccc3oc(SCc4ccc(-c5ccccc5)cc4)nc3c2)NC1=O (stereo not shown) [Example 47]", "MEASUREMENT_UNITS": "µg/mL", "READOUT_QUALIFIER": "=", "MIC Enterococcus faecalis (GC 2691)": 32}
{"COMPOUND": "N=C1NCC(C(O)C2NC(=O)C(CC3CCCCC3)NC(=O)C(CC3CCCCC3)NC(=O)CNC(=O)C(CO)NC(=O)C(C(O)C3CNC(=N)N3C3OC(CO)C(O)C(O)C3O)NC2=O)N1 (stereo not drawn) [Example 52] (cyclo(G[Cha][Cha][ξEnduracididine(βξ-OH,4'ξ)][X1]S); configuration not given here)", "MEASUREMENT_UNITS": "µg/mL", "READOUT_QUALIFIER": "=", "MIC Enterococcus faecalis (GC 2691)": 32}
